Catalogue of molecules with associated selectivity ratio
# Measurement Notes: Selectivity index, ratio of IC50 for human HeLa cells to IC50 for CQ-resistant Plasmodium falciparum W2
# Format: toxicity, cell-based
# Experimental Context: read-out: Ratio IC50

Compound String	selectivity ratio
COc1ccc(/C=C/C(=O)c2ccc(OCC(=O)NCCCCCCNc3ccnc4cc(Cl)ccc34)cc2)cc1	1400
COc1ccc(C(=O)/C=C/c2ccc(OCC(=O)NCCCCCCNc3ccnc4cc(Cl)ccc34)cc2)cc1	1130

###

# System: HeLa
# Measurement Notes: Cytotoxicity against human HeLa cells after 24 hrs by trypan blue dye exclusion assay
# Format: cell-based
Catalogue of molecules with associated IC50
Measured Attribute: IC50 (µM)

Compound String	Unit	Experimental Result
COc1ccc(/C=C/C(=O)c2ccc(OCC(=O)NCCCCCCNc3ccnc4cc(Cl)ccc34)cc2)cc1	µM	25
COc1ccc(C(=O)/C=C/c2ccc(OCC(=O)NCCCCCCNc3ccnc4cc(Cl)ccc34)cc2)cc1	µM	40
